Target: Torsin-1A-interacting protein 2 (Homo sapiens) (UniProt Q8NFQ8)
Sequence (Q8NFQ8 whole entry, looked up): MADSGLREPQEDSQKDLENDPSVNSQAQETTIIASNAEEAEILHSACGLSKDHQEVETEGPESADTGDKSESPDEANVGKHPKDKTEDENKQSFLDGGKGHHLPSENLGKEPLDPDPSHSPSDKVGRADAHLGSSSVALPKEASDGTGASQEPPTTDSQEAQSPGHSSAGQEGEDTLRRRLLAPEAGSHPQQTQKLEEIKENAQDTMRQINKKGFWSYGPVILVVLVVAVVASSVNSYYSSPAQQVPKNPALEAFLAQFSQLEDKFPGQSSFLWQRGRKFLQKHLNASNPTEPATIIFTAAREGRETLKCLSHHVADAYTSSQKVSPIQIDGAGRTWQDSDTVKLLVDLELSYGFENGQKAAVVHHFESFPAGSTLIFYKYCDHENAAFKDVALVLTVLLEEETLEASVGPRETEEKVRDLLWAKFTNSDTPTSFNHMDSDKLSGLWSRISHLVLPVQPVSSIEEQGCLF
Assay: LULL1 binders on small-molecule microarray, primary screen, cell lysate, human LULL1 lysate, 635/667 nm fluorescence (AID 1092);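 note: probe is lysate of COS7 cells overexpressing human LULL1; score merges per-feature 667 nm fluorescence with signal-to-noise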
Conditions: hLULL1 lysate binding, 635 nm fluorescence, higher = more signal
measuredParameter: composite z-score
Please give only the number in your answer, with no unit.

Past entries and their recorded results:
- compound: "COc1ccc(-c2cc3c(c(CCc4ccccc4)n2)[Si](C(C)C)(C(C)C)O[C@H]3c2ccccc2)cn1"
  testValue: -0.0354
- compound: "C[C@H]1C2[C@H](Cc3ccccc3)NC(=O)[C@]23C(=O)N[C@@H](Cc2ccccc2)C(=O)N2CCC[C@H]2C(=O)NC/C=C/CC/C=C/C3[C@@H]2O[C@]12C (stereo partly drawn)"
  testValue: 1.7

--- query ---
Lab note: need composite z-score for CCOC(=O)C[C@H]1[C@H](OC(=O)c2cc3ccccc3oc2=O)[C@@H](NC(=O)Cc2ccc(OC)cc2)c2cc(OCCCO)ccc2N1C(=O)Cc1ccc(OC)cc1 on Torsin-1A-interacting protein 2 (Homo sapiens) (UniProt Q8NFQ8), anyone have it?
1.65

* * *

Recorded measurements of composite z-score, one per entry
Test system: Human papillomavirus type 1a protein E7 (residues 44-93)
Test: HPV1a E7 fragment binders on microarrays, primary screen, biochemical, small-molecule microarray, residues 44-93, 635 nm fluorescence (AID 1108);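 note: E7 fragment applied at 1 µg/mL in TBST for 1 h at 4 C; score combines spot fluorescence with its signal to noise ratio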
Settings: small-molecule microarray binding, fluorescence 635 nm; higher = more signal
Please give only the number in your answer, with no unit.

Past entries and their recorded results:
- compound: "C=CC[C@@]1(C(=O)NCCCOC)N=C(c2ccc(OCCCO)cc2)O[C@@H]1c1ccccc1CN=[N+]=[N-]"
  composite z-score: 1.42
- compound: "CC(C)c1ccc(NN2C(C(O)C3CCCCC3)C=CC3C(=O)N(c4ccccc4)C(=O)C32)cc1 (configuration not stated)"
  composite z-score: 0.324
- compound: "C=CCNC(=O)[C@@H]1[C@H]2C(=O)O[C@H](c3ccccc3)[C@H](c3ccccc3)N2[C@H](c2ccc(OCCO)cc2)[C@@]12C(=O)Nc1ccc(C#CCNC(N)=O)cc12"
  composite z-score: 1.24
- compound: "COCCCNC(=O)[C@@]1(Cc2ccccc2I)c2ccccc2C(=O)N(C2CCCCC2)[C@H]1c1ccc(CO)cc1"
  composite z-score: 1.13
- compound: "O=C(NCCN1CCOCC1)[C@@H]1c2ccccc2C(=O)N(CC23CC4CC(CC(C4)C2)C3)[C@H]1c1ccc(CO)cc1"
  composite z-score: 1.45
- compound: "CC(C)(C)OC(=O)N1[C@@H](C=C(Br)Br)COC1(C)C"
  composite z-score: 0.943

--- query ---
May I ask what composite z-score has been recorded for COc1ccc([Si](C)(C)[C@H]2[C@H](CC(=O)N3CCC[C@H]3CO)O[C@@]3(C(=O)N(Cc4cccc(N5CCCCC5=O)c4)c4ccccc43)[C@@H]2C)cc1 ?
1.3

* * *

Test: MM1S myeloma cell viability, profiling panel, resazurin fluorescence, basal, 24 h, PK04 Diversity Set (AID 1174);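 note: MM1S multiple myeloma cell line; test concentration not given here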
Settings: called active from +8 up or from −8 down
Activity calls are given as the source filed them.
Assign a class; possible classes are active, inactive

Solved entries (count: 5):
- compound: "O=C(N1CCOCC1)[C@]1(CCS(=O)(=O)c2ccccc2)N=C(c2ccc(OCCCO)cc2)O[C@@H]1c1ccccc1"
  classification: "inactive"
- compound: "CCCC[C@@H](O)C1=C(C)Cn2c(=O)n(-c3ccccc3)c(=O)n2[C@H]1CO"
  classification: "inactive"
- compound: "CCCCCN1CC=CC23O[C@@H]4/C=C\\CCCOC(=O)C4[C@H]2C(=O)N(CCO)[C@@H]3C1=O (some centres not stated)"
  classification: "inactive"
- compound: "COCCOC(=O)N1C(=O)[C@@]2(c3cc(C#CCCO)ccc31)[C@H](C(=O)N1CCN(c3ncccn3)CC1)[C@H]1C(=O)O[C@H](c3ccccc3)[C@H](c3ccccc3)N1[C@@H]2c1ccc(OCCO)cc1"
  classification: "inactive"
- compound: "C=CC[C@H](O)c1ccc(O)c(F)c1"
  classification: "inactive"

Query compound follows.
Field: outcome | Entry: COCCOC(=O)N1C(=O)[C@@]2(c3cc(C#CCC(C(=O)OC)C(=O)OC)ccc31)[C@H](C(=O)N1CCc3cc(OC)c(OC)cc3C1)[C@H]1C(=O)O[C@H](c3ccccc3)[C@H](c3ccccc3)N1[C@@H]2c1ccccc1OCCO
inactive
